molecular target: Sphingosine kinase 1 (Homo sapiens, UniProt Q9NYA1); assay: Activation of recombinant GFP-tagged SK1 (unknown origin) expressed in HEK293 cells using sphingosine as substrate after 30 mins by Cerenkov counting analysis
Sequence (Q9NYA1 whole entry): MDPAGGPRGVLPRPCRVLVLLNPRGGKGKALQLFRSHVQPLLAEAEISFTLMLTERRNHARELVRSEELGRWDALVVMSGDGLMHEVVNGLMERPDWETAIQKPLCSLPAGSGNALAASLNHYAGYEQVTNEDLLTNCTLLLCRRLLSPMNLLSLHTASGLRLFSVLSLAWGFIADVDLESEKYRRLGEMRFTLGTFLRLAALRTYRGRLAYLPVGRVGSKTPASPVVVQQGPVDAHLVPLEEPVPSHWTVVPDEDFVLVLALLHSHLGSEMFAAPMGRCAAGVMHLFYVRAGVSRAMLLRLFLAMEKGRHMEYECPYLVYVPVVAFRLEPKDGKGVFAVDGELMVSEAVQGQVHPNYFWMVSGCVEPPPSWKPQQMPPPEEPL
pEC50: −log10 of the molar value.
The entries below come with measured pEC50 values attached.

compound.structure.string	pEC50
CCCCCCCCc1ccc(CC[C@](/C=C/P(=O)(O)O)(CF)N=[N+]=[N-])cc1	5.24
CCCCCCCCc1ccc(CC[C@](/C=C/P(=O)(O)O)(CO)N=[N+]=[N-])cc1	5.08
